B1: SLC35F2 (parent)
chain: QYLAERYKVNTPMLQSFINYCLLF

variants of: B1; assay: protein stability index of a GFP-peptide fusion (GPS, HEK-293T) (PSI 1-6); higher = more stable; conditions: c terminus: a fixed tail appended;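 note: lentivirally expressed fusions sorted by FACS into six bins by GFP to DsRed ratio, PSI derived from sequencing read proportions per bin multiplied by bin number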
protein stability index for assorted variants

| Variant Name | protein stability index |
| --- | --- |
| N19Q | 3.31 |
| R6E | 2.72 |
| Y2S | 2.08 |
| V9W | 1.98 |
| L14R | 2.66 |
| A4D | 2.26 |
| L14G | 2.08 |
| L23A | 2.27 |
| I18F | 1.98 |
| I18L | 2.96 |
| I18V | 1.34 |
| P12A | 4.77 |
| F17Q | 2.34 |
| L3D | 3 |
| V9E | 2.65 |
| F24Y | 3.33 |
| F24K | 1.98 |
| V9Q | 2.87 |
| L3A | 3.3 |
| L3S | 2.5 |
| C21L | 2.52 |
| R6C | 2.86 |
